B1: tRNA (parent)
chain: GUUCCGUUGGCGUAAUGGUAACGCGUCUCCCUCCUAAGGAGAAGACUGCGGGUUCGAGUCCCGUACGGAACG

Variants of: B1
Procedure summary: yeast fitness relative to wild type (ratio to wild type); higher = fitter; tRNA-Arg(CCU), competitive growth, 37 C, YPD
This sample holds only a part of the variants without activity.
Readout name: yeast fitness
# output: bare number, no unit

Mutant designation: C22U A42U G44U G63A
Readout name: yeast fitness
Assay result: 0.608
//
Mutant designation: G9U C24G C55U
Readout name: yeast fitness
Assay result: 0.668
//
Mutant designation: C5U C11A G50C
Readout name: yeast fitness
Assay result: 0.598
//
Mutant designation: A43U C55A A65U
Readout name: yeast fitness
Assay result: 0.515

Query: Look up yeast fitness: U26A U59C C66U
Result: 0.564
